Test: Metabolic stability in human liver microsomes
Type: in vitro ADME
Details: pH 7.4, 1 μM compound, 0.5 mg/mL protein, read-out: CLint (uL/min/mg), Human liver microsome experiment
Attribute Measured: microsomal CLint at 1 μM (µL/min/mg)
Your answer should be a plain number; it is taken to be in µL/min/mg.

Consider the following illustrative entries.
What microsomal CLint at 1 μM value was documented for this molecule, CNCC(C)(C)c1ccc(Nc2ncc(Cl)c(Nc3ccccc3P(C)(C)=O)n2)c(OC)c1 [Example 11] ?
23.8

What microsomal CLint at 1 μM value was documented for this molecule, COc1cc(C(C)N)ccc1Nc1ncc(Cl)c(Nc2ccccc2P(C)(C)=O)n1 (stereo not shown) [Example 7] ?
5.7

What microsomal CLint at 1 μM value was documented for this molecule, COc1cc(CCN(C)C)ccc1Nc1ncc(Cl)c(Nc2ccccc2P(C)(C)=O)n1 [Example 3] ?
15.4

What microsomal CLint at 1 μM value was documented for this molecule, COc1cc(C(C)(C)CN)ccc1Nc1ncc(Cl)c(Nc2ccccc2P(C)(C)=O)n1 [Example 10] ?
25.2

What microsomal CLint at 1 μM value was documented for this molecule, COc1cc(C(C)N(C)C)ccc1Nc1ncc(Cl)c(Nc2ccccc2P(C)(C)=O)n1 (stereo not shown) [Example 8] ?
24.6

---
What microsomal CLint at 1 μM value was documented for this molecule, COc1cc(C(C)CN)ccc1Nc1ncc(Cl)c(Nc2ccccc2P(C)(C)=O)n1 (stereo not shown) [Example 16] ?
21.5

What microsomal CLint at 1 μM value was documented for this molecule, CNC(C)c1ccc(Nc2ncc(Cl)c(Nc3ccccc3P(C)(C)=O)n2)c(OC)c1 (stereo not shown) [Example 9] ?
11.3

###

Molecular target: ALK [L1196M] (Homo sapiens, UniProt Q9UM73, L1196M)
Sequence (Q9UM73 19-1620 L1196M): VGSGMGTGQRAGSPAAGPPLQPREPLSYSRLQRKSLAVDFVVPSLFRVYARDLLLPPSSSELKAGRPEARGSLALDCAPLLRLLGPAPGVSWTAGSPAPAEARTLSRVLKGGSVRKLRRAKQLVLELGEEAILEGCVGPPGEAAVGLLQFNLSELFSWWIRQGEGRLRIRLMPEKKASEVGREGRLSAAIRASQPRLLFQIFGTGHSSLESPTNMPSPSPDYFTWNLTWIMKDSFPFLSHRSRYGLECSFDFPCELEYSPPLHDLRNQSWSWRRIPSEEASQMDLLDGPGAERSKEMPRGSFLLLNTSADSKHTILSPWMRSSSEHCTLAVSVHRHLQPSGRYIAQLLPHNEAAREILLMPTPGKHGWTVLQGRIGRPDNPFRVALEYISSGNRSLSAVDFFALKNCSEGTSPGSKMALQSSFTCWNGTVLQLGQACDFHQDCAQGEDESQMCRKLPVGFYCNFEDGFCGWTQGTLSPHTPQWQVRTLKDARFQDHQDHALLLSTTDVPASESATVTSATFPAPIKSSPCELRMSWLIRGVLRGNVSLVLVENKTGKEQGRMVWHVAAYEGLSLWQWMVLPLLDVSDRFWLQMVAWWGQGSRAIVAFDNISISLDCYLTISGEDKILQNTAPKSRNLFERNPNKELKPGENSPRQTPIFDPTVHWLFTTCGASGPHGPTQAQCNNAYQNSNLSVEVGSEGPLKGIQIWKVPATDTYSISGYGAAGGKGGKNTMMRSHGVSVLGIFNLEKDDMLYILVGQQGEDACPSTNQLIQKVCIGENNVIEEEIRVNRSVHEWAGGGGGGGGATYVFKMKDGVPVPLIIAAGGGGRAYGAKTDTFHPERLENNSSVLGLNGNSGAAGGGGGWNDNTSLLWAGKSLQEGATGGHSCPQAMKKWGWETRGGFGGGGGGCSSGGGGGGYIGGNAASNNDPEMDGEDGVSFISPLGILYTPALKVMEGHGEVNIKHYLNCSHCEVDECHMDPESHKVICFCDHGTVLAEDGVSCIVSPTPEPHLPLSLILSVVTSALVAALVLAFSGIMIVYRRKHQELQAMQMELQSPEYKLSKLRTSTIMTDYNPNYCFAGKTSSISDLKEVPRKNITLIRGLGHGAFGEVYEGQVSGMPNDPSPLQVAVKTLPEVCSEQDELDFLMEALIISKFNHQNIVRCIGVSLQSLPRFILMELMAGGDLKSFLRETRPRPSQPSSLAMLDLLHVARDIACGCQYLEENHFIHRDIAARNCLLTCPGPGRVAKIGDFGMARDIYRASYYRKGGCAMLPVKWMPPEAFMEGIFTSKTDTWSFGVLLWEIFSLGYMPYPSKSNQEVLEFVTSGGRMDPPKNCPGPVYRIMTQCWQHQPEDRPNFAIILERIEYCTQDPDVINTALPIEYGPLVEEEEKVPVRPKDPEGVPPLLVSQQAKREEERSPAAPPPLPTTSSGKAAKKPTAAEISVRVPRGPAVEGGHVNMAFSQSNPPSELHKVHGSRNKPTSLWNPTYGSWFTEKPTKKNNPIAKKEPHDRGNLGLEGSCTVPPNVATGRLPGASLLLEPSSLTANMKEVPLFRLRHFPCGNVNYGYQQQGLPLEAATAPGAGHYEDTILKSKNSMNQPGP
Experiment: Kinase inhibition assay, ALK [L1196M]
Assay type: biochemical
Attribute Measured: IC50

What IC50 value was documented for this molecule, COc1cc(C(C)(C)N)ccc1Nc1ncc(Cl)c(Nc2ccccc2P(C)(C)=O)n1 [Example 13] ?
≤ 2 nM

What IC50 value was documented for this molecule, COc1cc(C(C)(C)CN)ccc1Nc1ncc(Cl)c(Nc2ccccc2P(C)(C)=O)n1 [Example 10] ?
2 to 5 nM

What IC50 value was documented for this molecule, COc1cc(CCN2CCOCC2)ccc1Nc1ncc(Cl)c(Nc2ccccc2P(C)(C)=O)n1 [Example 6] ?
2 to 5 nM

What IC50 value was documented for this molecule, COc1cc(C(C)CN)ccc1Nc1ncc(Cl)c(Nc2ccccc2P(C)(C)=O)n1 (stereo not shown) [Example 16] ?
5 to 10 nM

###

Listing of entries alongside the reported IC50.
Biological target: ALK [L1196M] (Homo sapiens, UniProt Q9UM73, L1196M)
Test: Kinase inhibition assay, ALK [L1196M]
Assay type: biochemical

Consider the following illustrative entries.
What value of IC50 on ALK [L1196M] (Homo sapiens, UniProt Q9UM73, L1196M) does CNCC(C)(C)c1ccc(Nc2ncc(Cl)c(Nc3ccccc3P(C)(C)=O)n2)c(OC)c1 [Example 11] have?
5 to 10 nM

What value of IC50 on ALK [L1196M] (Homo sapiens, UniProt Q9UM73, L1196M) does CNC(C)c1ccc(Nc2ncc(Cl)c(Nc3ccccc3P(C)(C)=O)n2)c(OC)c1 (stereo not shown) [Example 9] have?
2 to 5 nM

What value of IC50 on ALK [L1196M] (Homo sapiens, UniProt Q9UM73, L1196M) does COc1cc(CCN2CCCCC2)ccc1Nc1ncc(Cl)c(Nc2ccccc2P(C)(C)=O)n1 [Example 4] have?
2 to 5 nM

Turning to the following compound.
What value of IC50 on ALK [L1196M] (Homo sapiens, UniProt Q9UM73, L1196M) does COc1cc(C(C)N)ccc1Nc1ncc(Cl)c(Nc2ccccc2P(C)(C)=O)n1 (stereo not shown) [Example 7] have?
2 to 5 nM
